ASSAY OVERVIEW: Multiple-dose plasma PK of IV Compound A in patients with NT2
Format: in vivo, human
CONDITION PARAMETERS: human, plasma, intravenous, 112 mg, Cmpd A 112 mg; 6 Hours Postdose at Day 1
Description: The purpose of the study was to evaluate the safety, tolerability, pharmacokinetics and pharmacodynamics of Compound A after multiple days of IV administration in patients with NT2. NT2 patients were evaluated in Cohort C1 and C2 (Table 30). Compound A or placebo were administered via IV infusion over 9 hours once daily for 7 days. […] In this part, potential efficacy of Compound A was evaluated with MWT, ESS, KSS, night-time PSG (NPSG), and PGI-C as an exploratory PD assessment. […]
MEASURED ENDPOINT: concentration at 6 h (ng/mL)
Report only the number, with the unit ng/mL understood.

For `COC(=O)N1CCC[C@H](NS(C)(=O)=O)[C@@H]1CO[C@H]1CC[C@@H](c2ccccc2)CC1` , what is its reported concentration at 6 h?
138
